molar heat capacity at constant pressure listing for selected compounds.
# assay-notes: molar heat capacity at constant pressure
# measurement-conditions: 283.15 K; 101.33 kPa; Liquid; Small sample (50 mg) DSC
Number only, in J/K/mol; omit the unit.

Example entries begin here.
smiles_input=Clc1cccc(Br)c1 value_type="molar heat capacity at constant pressure" numeric_readout=171.14
smiles_input=Brc1ccccc1 value_type="molar heat capacity at constant pressure" numeric_readout=151.63
smiles_input=Brc1ccccc1Br value_type="molar heat capacity at constant pressure" numeric_readout=177.44

Dear colleague, please send me the reported molar heat capacity at constant pressure for Clc1ccccc1Br when you can.
172.25

Dear colleague, please send me the reported molar heat capacity at constant pressure for Clc1ccccc1Cl when you can.
167.68

Dear colleague, please send me the reported molar heat capacity at constant pressure for Clc1ccccc1 when you can.
147.73

Dear colleague, please send me the reported molar heat capacity at constant pressure for Brc1cccc(Br)c1 when you can.
176.01

Dear colleague, please send me the reported molar heat capacity at constant pressure for Clc1cccc(Cl)c1 when you can.
167.15

----------
# measurement-conditions: 288.15 K; 101.33 kPa; Liquid; Vibrating tube method
mass density listing for selected molecules.
Number only, in kg/m3; omit the unit.

Dear colleague, please send me the reported mass density for Clc1cccc(Cl)c1 when you can.
1294.08

Dear colleague, please send me the reported mass density for Brc1ccccc1Br when you can.
1987.92

Dear colleague, please send me the reported mass density for Brc1cccc(Br)c1 when you can.
1964.14

Dear colleague, please send me the reported mass density for Clc1cccc(Br)c1 when you can.
1638.44

Dear colleague, please send me the reported mass density for Clc1ccc(Cl)c(Cl)c1 when you can.
1460.65

Dear colleague, please send me the reported mass density for Clc1ccccc1 when you can.
1111.9

Dear colleague, please send me the reported mass density for Clc1ccccc1Cl when you can.
1311.76

Dear colleague, please send me the reported mass density for Brc1ccccc1 when you can.
1501.95

Dear colleague, please send me the reported mass density for Clc1ccccc1Br when you can.
1659.67

----------
mass density listing for selected molecules.
# measurement-conditions: 298.15 K; 101.33 kPa; Liquid; Vibrating tube method
Number only, in kg/m3; omit the unit.

Example entries begin here.
smiles_input=Clc1cccc(Br)c1 value_type="mass density" unit_annotation=kg/m3 numeric_readout=1624.97
smiles_input=Brc1cccc(Br)c1 value_type="mass density" unit_annotation=kg/m3 numeric_readout=1948.87

We next turn to a different molecule, shown below.
Dear colleague, please send me the reported mass density for Clc1ccccc1 when you can.
1101.14

----------
# assay-notes: molar heat capacity at constant pressure
# measurement-conditions: 293.15 K; 101.33 kPa; Liquid; Small sample (50 mg) DSC
value-type: molar heat capacity at constant pressure (J/K/mol)
Number only, in J/K/mol; omit the unit.

Example entries begin here.
smiles_input=Brc1cccc(Br)c1 unit_annotation=J/K/mol numeric_readout=177.72
smiles_input=Clc1cccc(Cl)c1 unit_annotation=J/K/mol numeric_readout=169.13

We next turn to a different compound, shown below.
Dear colleague, please send me the reported molar heat capacity at constant pressure for Brc1ccccc1 when you can.
153.54

----------
mass density listing for selected molecules.
# measurement-conditions: 298.15 K; 101.33 kPa; Liquid; Vibrating tube method
Number only, in kg/m3; omit the unit.

Example entries begin here.
smiles_input=Clc1ccccc1Br numeric_readout=1646.32
smiles_input=Clc1ccc(Cl)c(Cl)c1 numeric_readout=1448.67
smiles_input=Clc1ccccc1Cl numeric_readout=1300.61
smiles_input=Brc1ccccc1Br numeric_readout=1972.75
smiles_input=Brc1ccccc1 numeric_readout=1488.45

Dear colleague, please send me the reported mass density for Clc1cccc(Cl)c1 when you can.
1282.79
